Tested on: CAKI-1
test.protocol: NCI tumour cell line growth inhibition, 48 h
The source made the active and inactive calls. Cut-off read from the data, not from the text of the source: active = GI50 up to about 1.1 µM and inactive = higher.
Labels: active, inactive

{"columns": ["compound", "category"],
 "data": [
  ["O=C(O)C(F)(OC(F)(F)C(F)(OC(F)(F)C(F)(F)C(F)(F)F)C(F)(F)F)C(F)(F)F (stereo not given)", "inactive"],
  ["Cc1nc(Nc2ccccc2)sc1C(=O)CC(=O)C(=O)NC12CC3CC(CC(C3)C1)C2", "inactive"],
  ["O=C1N(Cl)C(=O)C(c2ccc(Cl)cc2)(c2ccc(Cl)cc2)N1Cl", "inactive"],
  ["Cc1ccc(/C=C/C(=O)c2sc(-c3cccnc3)nc2C)cc1", "inactive"],
  ["C[C@@H]1CCC2[C@@H](C)[C@@H](OCCO[C@H]3OC4O[C@@]5(C)CCC6[C@H](C)CCC([C@H]3C)[C@@]46OO5)OC3O[C@@]4(C)CCC1[C@]32OO4 (stereo not given in full)", "active"],
  ["CC1=NN(c2nc(N)nc(C(C)Sc3cc(Cl)c(C)cc3S(N)(=O)=O)n2)C(C)(C)C1 (stereo not given)", "inactive"],
  ["CC(C)N1CCCOC(c2ccc([N+](=O)[O-])cc2)O1 (stereo not given)", "inactive"],
  ["COc1cccc2c1OC1c3ccccc3OCC1(O)C2 (stereo not given)", "inactive"],
  ["CCOC(=O)C(NC(=O)c1ccc(/N=N/N(C)C)cc1)C(C)C (stereo not given)", "inactive"],
  ["CC(C)(C)c1cc(C(O)(C(F)(F)F)C(F)(F)F)c2c(c1)C(C(F)(F)F)(C(F)(F)F)OC(c1ccccc1)(C(C)(C)C)N2 (stereo not given)", "inactive"],
  ["CCOc1ccc(NC(=O)C(=O)CC(=O)c2sc(NNC(C)=O)nc2C)cc1", "inactive"],
  ["COc1ccc(/C(C#N)=C2/O/C(=N/N)C(c3ccc(OC)c(OC)c3)C2=O)cc1OC (stereo not given)", "inactive"],
  ["O=C1Nc2ccc(S(=O)(=O)O)cc2/C1=C1/Nc2ccc(Br)cc2C1=O", "inactive"],
  ["CCN(/C=C1/C(=O)C(c2ccccc2)N(c2ccccc2)C1=O)CC (stereo not given)", "inactive"],
  ["CCOC(=O)C(Cc1ccc(OC(=O)c2ccc(OC)cc2)cc1)NC(=O)C(F)(F)F (stereo not given)", "inactive"],
  ["N/N=C(\\C(=O)Nc1ccc(Cl)cc1Cl)C(c1cnc2ccccc2n1)[N+](=O)[O-] (stereo not given)", "inactive"],
  ["Cc1ccc(C(=O)O)c(/C=C2\\Cc3ccc(C)cc3C2=O)c1", "inactive"],
  ["COC(=O)c1ccc(C(=O)OC)c2nc3cc(Cl)ccc3nc12", "inactive"],
  ["CCOC(=O)[C@H]1Nc2ccc(OC)cc2C2c3ccccc3CC21 (stereo not given in full)", "inactive"],
  ["COc1cc([C@@H]2c3cc(O)c(OC)cc3C=C(C(N)=O)[C@H]2C(N)=O)ccc1O", "inactive"]
]}
